B1: library; a variant is named by its letters at N, in order (parent)
chain: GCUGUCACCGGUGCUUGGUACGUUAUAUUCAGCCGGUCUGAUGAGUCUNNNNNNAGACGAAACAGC

variants of: B1; assay: normalized RNA/DNA level without ligand (relative to sTRSVctl = 100) (log10 (% of sTRSVctl)); HEK293T overexpressing SLC46A1; higher = less ribozyme self-cleavage, higher mRNA level; conditions: without (6R,S)-folinic acid; ligand present: no
measurement.type: normalized RNA/DNA level without ligand (log10)
Numbers only.

GCUGUCACCGGUGCUUGGUACGUUAUAUUCAGCCGGUCUGAUGAGUCUCUGUAUAGACGAAACAGC    1.98
GCUGUCACCGGUGCUUGGUACGUUAUAUUCAGCCGGUCUGAUGAGUCUGACGUCAGACGAAACAGC    2.07
GCUGUCACCGGUGCUUGGUACGUUAUAUUCAGCCGGUCUGAUGAGUCUGUUUACAGACGAAACAGC    2.02

Need normalized RNA/DNA level without ligand (log10) for each of these variants.
1. GCUGUCACCGGUGCUUGGUACGUUAUAUUCAGCCGGUCUGAUGAGUCUAGCGAUAGACGAAACAGC
2. GCUGUCACCGGUGCUUGGUACGUUAUAUUCAGCCGGUCUGAUGAGUCUUUAAUCAGACGAAACAGC

Output line:
1: 1.98; 2: 2.04

State the recorded normalized RNA/DNA level without ligand (log10) for every item in the following list.
1. GCUGUCACCGGUGCUUGGUACGUUAUAUUCAGCCGGUCUGAUGAGUCUCGCAUUAGACGAAACAGC
2. GCUGUCACCGGUGCUUGGUACGUUAUAUUCAGCCGGUCUGAUGAGUCUAUUGCCAGACGAAACAGC
3. GCUGUCACCGGUGCUUGGUACGUUAUAUUCAGCCGGUCUGAUGAGUCUAGAACAAGACGAAACAGC
4. GCUGUCACCGGUGCUUGGUACGUUAUAUUCAGCCGGUCUGAUGAGUCUCUUCACAGACGAAACAGC
5. GCUGUCACCGGUGCUUGGUACGUUAUAUUCAGCCGGUCUGAUGAGUCUUGCUGUAGACGAAACAGC
6. GCUGUCACCGGUGCUUGGUACGUUAUAUUCAGCCGGUCUGAUGAGUCUUGACGGAGACGAAACAGC

Output line:
1. 2.01
2. 2.02
3. 2.01
4. 2.03
5. 2.01
6. 1.75

// for each variant in input: emit normalized RNA/DNA level without ligand (log10)
1. GCUGUCACCGGUGCUUGGUACGUUAUAUUCAGCCGGUCUGAUGAGUCUUAUCGGAGACGAAACAGC
2. GCUGUCACCGGUGCUUGGUACGUUAUAUUCAGCCGGUCUGAUGAGUCUAAGGCCAGACGAAACAGC
3. GCUGUCACCGGUGCUUGGUACGUUAUAUUCAGCCGGUCUGAUGAGUCUGAUAGAAGACGAAACAGC
4. GCUGUCACCGGUGCUUGGUACGUUAUAUUCAGCCGGUCUGAUGAGUCUCACCAUAGACGAAACAGC
5. GCUGUCACCGGUGCUUGGUACGUUAUAUUCAGCCGGUCUGAUGAGUCUACGACGAGACGAAACAGC
6. GCUGUCACCGGUGCUUGGUACGUUAUAUUCAGCCGGUCUGAUGAGUCUGCACGCAGACGAAACAGC
7. GCUGUCACCGGUGCUUGGUACGUUAUAUUCAGCCGGUCUGAUGAGUCUACAACAAGACGAAACAGC
8. GCUGUCACCGGUGCUUGGUACGUUAUAUUCAGCCGGUCUGAUGAGUCUUGUCAAAGACGAAACAGC

Output line:
1: 1.69; 2: 2.06; 3: 1.96; 4: 1.98; 5: 1.93; 6: 2.03; 7: 2.03; 8: 1.97

// for each variant below, give its normalized RNA/DNA level without ligand (log10)
1. GCUGUCACCGGUGCUUGGUACGUUAUAUUCAGCCGGUCUGAUGAGUCUUUGUCAAGACGAAACAGC
2. GCUGUCACCGGUGCUUGGUACGUUAUAUUCAGCCGGUCUGAUGAGUCUGGCAGGAGACGAAACAGC
3. GCUGUCACCGGUGCUUGGUACGUUAUAUUCAGCCGGUCUGAUGAGUCUCAACGGAGACGAAACAGC
4. GCUGUCACCGGUGCUUGGUACGUUAUAUUCAGCCGGUCUGAUGAGUCUUCAACAAGACGAAACAGC
5. GCUGUCACCGGUGCUUGGUACGUUAUAUUCAGCCGGUCUGAUGAGUCUGCGAUAAGACGAAACAGC
6. GCUGUCACCGGUGCUUGGUACGUUAUAUUCAGCCGGUCUGAUGAGUCUCUCUAUAGACGAAACAGC
7. GCUGUCACCGGUGCUUGGUACGUUAUAUUCAGCCGGUCUGAUGAGUCUGGUGCAAGACGAAACAGC

Output line:
1: 1.98; 2: 2.06; 3: 1.92; 4: 1.99; 5: 2; 6: 2.01; 7: 2.04

Take each entry in turn and give its normalized RNA/DNA level without ligand (log10).
1. GCUGUCACCGGUGCUUGGUACGUUAUAUUCAGCCGGUCUGAUGAGUCUCAAGUUAGACGAAACAGC
2. GCUGUCACCGGUGCUUGGUACGUUAUAUUCAGCCGGUCUGAUGAGUCUAUUUGGAGACGAAACAGC
3. GCUGUCACCGGUGCUUGGUACGUUAUAUUCAGCCGGUCUGAUGAGUCUUCUCUUAGACGAAACAGC
4. GCUGUCACCGGUGCUUGGUACGUUAUAUUCAGCCGGUCUGAUGAGUCUUAUGUCAGACGAAACAGC

Output line:
2
1.88
2.06
2.05

I'm hoping you can list normalized RNA/DNA level without ligand (log10) for every variant here, please.
1. GCUGUCACCGGUGCUUGGUACGUUAUAUUCAGCCGGUCUGAUGAGUCUAGGGCAAGACGAAACAGC
2. GCUGUCACCGGUGCUUGGUACGUUAUAUUCAGCCGGUCUGAUGAGUCUAACUAUAGACGAAACAGC
3. GCUGUCACCGGUGCUUGGUACGUUAUAUUCAGCCGGUCUGAUGAGUCUUGUUGCAGACGAAACAGC
4. GCUGUCACCGGUGCUUGGUACGUUAUAUUCAGCCGGUCUGAUGAGUCUUUGGGCAGACGAAACAGC
5. GCUGUCACCGGUGCUUGGUACGUUAUAUUCAGCCGGUCUGAUGAGUCUCGGGUGAGACGAAACAGC
6. GCUGUCACCGGUGCUUGGUACGUUAUAUUCAGCCGGUCUGAUGAGUCUUCCUGAAGACGAAACAGC

Output line:
[2.03, 1.98, 1.98, 2.04, 1.98, 2.02]

List reported normalized RNA/DNA level without ligand (log10) for each of these variants:
1. GCUGUCACCGGUGCUUGGUACGUUAUAUUCAGCCGGUCUGAUGAGUCUAGUUCUAGACGAAACAGC
2. GCUGUCACCGGUGCUUGGUACGUUAUAUUCAGCCGGUCUGAUGAGUCUAUCAUGAGACGAAACAGC
3. GCUGUCACCGGUGCUUGGUACGUUAUAUUCAGCCGGUCUGAUGAGUCUGGACUUAGACGAAACAGC
4. GCUGUCACCGGUGCUUGGUACGUUAUAUUCAGCCGGUCUGAUGAGUCUAUCGUAAGACGAAACAGC

Output line:
2.02
1.99
2.01
1.98

Input line: Returns the measured normalized RNA/DNA level without ligand (log10) for the input variant. Input: GCUGUCACCGGUGCUUGGUACGUUAUAUUCAGCCGGUCUGAUGAGUCUGUAAAGAGACGAAACAGC
Output line: 1.94

Just for reference, the supplement of paper PMC6757056 is where these values come from.
